Listing of entries alongside the reported parasite load remaining.
# TEST SUMMARY: liver-stage malaria parasite growth inhibition, primary screen, cell-based, HepG2, luciferase luminescence, HepG2 viability (AID 624349);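 further: 100% = mean of DMSO negative control wells on the same plate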
# CONDITION NOTES: P. berghei liver stage in HepG2, luciferase luminescence, concentration not given here; hits give low values
Activity calls are given as the source filed them. No stated cut-off is given here; in the data, active means parasite load remaining mostly below about 12% (no sharp cut-off); inactive means mostly above about 10%.

CC[C@H](C)C(=O)O[C@H]1C[C@H](O)C=C2C=C[C@H](C)[C@H](CC[C@@H](O)C[C@@H](O)CC(=O)O)[C@H]21 : 98.4% (inactive)
CC(C)Oc1ccc2c(=O)c(-c3ccccc3)coc2c1 : 170% (inactive)

input: Entry under review: `CC(=O)OCC(=O)[C@@]1(O)CC[C@H]2[C@@H]3CCC4=CC(=O)C=C[C@]4(C)[C@H]3[C@@H](O)C[C@@]21C` . Reported parasite load remaining?
output: 83.8% (inactive)

Just for reference, PubChem BioAssay is where these values come from.
